Tgt: T1, KGF (hKGF) (Homo sapiens, UniProt P21781 P21781:32-194)
T1 sequence: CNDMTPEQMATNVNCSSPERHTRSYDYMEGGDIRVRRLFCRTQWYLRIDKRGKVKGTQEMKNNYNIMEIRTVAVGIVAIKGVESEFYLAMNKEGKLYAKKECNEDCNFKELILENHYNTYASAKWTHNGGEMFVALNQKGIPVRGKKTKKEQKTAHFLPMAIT
Experimental protocol: filter; DPBS, 37 C
Condition: tags: Upstate Biotechnology; label: 32P
Exercise: state measured pKd for each of the binders provided.
Answers are plain numbers, as −log10 of the molar value.

16N (ssRNA, 2'-NH2 pyrimidines) RNA: GGGAGGACGAUGCGGAAGUUCUAACAAGUUAGUGGAAGGUUCCACUUGAAUGUACAGACGACUCGCCCGA | 8.85
69N (ssRNA, 2'-NH2 pyrimidines) RNA: GGGAGGACGAUGCGGGUAGGGAGUAGGACAGACAUAACAGUGCAACCAUCGUGGCCAGACGACUCGCCCGA | 7.82

Below are some binders; for each one, tell me its pKd.
1. 54F (ssRNA, 2'-F pyrimidines) RNA: GGGAGGACGAUGCGGAAGAUCUCCCAACUGCUGUGGCUAAUAAUUCUCUCCGCGUCCCCAGACGACUCGCCCGA
2. 37F (ssRNA, 2'-F pyrimidines) RNA: GGGAGGACGAUGCGGGCCCGAUCUACUGCAUUACCGAAACGAUUUCCCCACUGUGCAGACGACUCGCCCGA
3. 29F (ssRNA, 2'-F pyrimidines) RNA: GGGAGGACGAUGCGGGGACUUCAACUAAGUCCUCAUUUGCCUCGCUCCUCGUGCCCAGACGACUCGCCCGA

1. 8.91
2. 9.34
3. 8.49
